# Measured Target: UniProt P49760
# Sequence (P49760 whole entry): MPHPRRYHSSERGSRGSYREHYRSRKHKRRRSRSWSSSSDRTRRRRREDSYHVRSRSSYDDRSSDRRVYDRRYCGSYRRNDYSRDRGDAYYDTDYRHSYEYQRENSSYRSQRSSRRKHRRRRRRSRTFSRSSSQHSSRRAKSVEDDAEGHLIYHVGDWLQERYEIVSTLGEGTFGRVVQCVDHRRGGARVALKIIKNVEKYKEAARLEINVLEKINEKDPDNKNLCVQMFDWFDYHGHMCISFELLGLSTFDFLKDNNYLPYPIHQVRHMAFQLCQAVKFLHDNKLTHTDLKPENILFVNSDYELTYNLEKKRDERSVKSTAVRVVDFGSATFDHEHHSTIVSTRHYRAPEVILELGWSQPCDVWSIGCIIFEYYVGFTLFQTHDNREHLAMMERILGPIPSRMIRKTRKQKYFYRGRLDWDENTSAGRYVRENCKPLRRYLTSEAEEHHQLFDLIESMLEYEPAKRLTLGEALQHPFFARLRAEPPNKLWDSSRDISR
# Test Method Notes: biochemical
# Run Conditions: read-out: CLK2 (% Inh.), % inhibition at 3 μM
Reported Metric: inhibition at 3 µM (%)

Compound: CNC(=O)c1ccc(-c2c[nH]c3nc(Nc4ccc(C(=O)NC5CN(C)C5)cc4OC)nc(OC4CCC(C)(O)CC4)c23)cc1 (stereo not shown)
Scale Unit: %
inhibition at 3 µM: 102
--
Compound: CNC(=O)c1ccc(Nc2nc(OC3CCCC3)c3c(-c4ccc(OC)c(OC)c4)c[nH]c3n2)c(OC)c1
Scale Unit: %
inhibition at 3 µM: 99
--
Compound: CCc1cc(C(=O)NC)ccc1Nc1nc(OC2CCOCC2)c2c(-c3ccc4nc(C)oc4c3)c[nH]c2n1
Scale Unit: %
inhibition at 3 µM: 101
--
Compound: CNC(=O)c1ccc(Nc2nc(OCCOC)c3c(-c4ccc5nc(C)oc5c4)c[nH]c3n2)c(OC)c1
Scale Unit: %
inhibition at 3 µM: 99

====

# Tested on: breast cancer cell lines
# Test Method Notes: cells
# Run Conditions: Homo sapiens, BT-483, 96 h, read-out: Growth Inhibition IC50
Reported Metric: IC50 (µM)

P = CNC(=O)c1ccc(Nc2nc(OC(C)C)c3c(-c4ccc5nc(C)oc5c4)c[nH]c3n2)c(OC)c1
Q = CNC(=O)c1ccc(Nc2nc(OC3CCCC3)c3c(-c4ccc(O)cc4)c[nH]c3n2)c(OC)c1
Task: Which value of IC50 is smaller, the one for P or the one for Q ? Give the label under which the chosen entry appears.
Result: P
(P: 3.4 µM, Q: 10 µM)

====

# System: breast cancer cell lines
# Test Method Notes: cells
# Run Conditions: Homo sapiens, HCC1937, 96 h, read-out: Growth Inhibition IC50
Reported Metric: IC50 (µM)

A = CNC(=O)c1ccc(Nc2nc(OC3CCCC3)c3c(-c4ccc(O)cc4)c[nH]c3n2)c(OC)c1
B = CNC(=O)c1ccc(Nc2nc(OC(C)C)c3c(-c4ccc5nc(C)oc5c4)c[nH]c3n2)c(OC)c1
Task: Which value of IC50 is smaller, the one for A or the one for B ? Give the label under which the chosen entry appears.
Result: B

====

# Test system: breast cancer cell lines
# Test Method Notes: cells
# Run Conditions: Homo sapiens, MDA-MB-468, 96 h, read-out: Growth Inhibition IC50
Reported Metric: IC50 (µM)

Molecule Smiles: CNC(=O)c1ccc(Nc2nc(OC(C)C)c3c(-c4ccc5nc(C)oc5c4)c[nH]c3n2)c(OC)c1
Measured Target: breast cancer cell lines
IC50 / µM: 0.024
--
Molecule Smiles: CNC(=O)c1ccc(Nc2nc(OC3CCCC3)c3c(-c4ccc(O)cc4)c[nH]c3n2)c(OC)c1
Measured Target: breast cancer cell lines
IC50 / µM: 0.032

====

# Measured Target: TTK (Homo sapiens (Human), UniProt P33981)
# Sequence (P33981 whole entry): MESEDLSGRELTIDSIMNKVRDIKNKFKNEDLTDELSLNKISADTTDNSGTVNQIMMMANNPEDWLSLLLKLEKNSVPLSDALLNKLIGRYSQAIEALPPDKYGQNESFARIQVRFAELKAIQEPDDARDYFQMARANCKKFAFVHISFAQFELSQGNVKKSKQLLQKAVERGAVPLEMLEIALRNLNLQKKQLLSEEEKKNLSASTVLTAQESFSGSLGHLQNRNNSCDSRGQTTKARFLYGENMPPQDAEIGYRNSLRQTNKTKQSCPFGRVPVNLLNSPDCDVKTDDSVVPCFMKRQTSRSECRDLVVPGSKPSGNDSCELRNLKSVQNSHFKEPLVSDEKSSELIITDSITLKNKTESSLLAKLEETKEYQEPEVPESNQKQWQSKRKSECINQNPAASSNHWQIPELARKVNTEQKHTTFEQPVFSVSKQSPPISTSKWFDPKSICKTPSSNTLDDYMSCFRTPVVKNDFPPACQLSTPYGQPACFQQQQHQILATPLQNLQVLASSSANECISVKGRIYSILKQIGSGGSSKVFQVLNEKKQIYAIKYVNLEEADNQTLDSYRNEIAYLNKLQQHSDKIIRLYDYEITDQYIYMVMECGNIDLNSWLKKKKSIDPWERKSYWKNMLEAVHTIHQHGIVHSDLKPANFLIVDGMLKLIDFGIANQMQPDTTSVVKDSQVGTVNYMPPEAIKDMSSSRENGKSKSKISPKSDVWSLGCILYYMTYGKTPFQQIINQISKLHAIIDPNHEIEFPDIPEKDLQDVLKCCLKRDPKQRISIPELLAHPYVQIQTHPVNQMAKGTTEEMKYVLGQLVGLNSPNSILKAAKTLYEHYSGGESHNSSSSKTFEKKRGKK
# Test Method Notes: biochemical
# Run Conditions: read-out: TTK (% Inh.)
Reported Metric: inhibition at 3 µM (%)

Molecule: CNC(=O)c1ccc(Nc2nc(OC3CCC(C)(O)CC3)c3c(-c4ccc5nc(C)oc5c4)c[nH]c3n2)c(Cl)c1 (stereo not shown)
inhibition at 3 µM, %: 101
--
Molecule: COc1cc(C(=O)N(C)C)ccc1Nc1nc(OC)c2c(-c3ccncc3)c[nH]c2n1
inhibition at 3 µM, %: 99
--
Molecule: COc1cc(C(=O)NC2COC2)ccc1Nc1nc(OC)c2c(-c3cc(C)nc(C)c3)c[nH]c2n1
inhibition at 3 µM, %: 102
--
Molecule: CCc1cc(C(=O)NC)ccc1Nc1nc(OC2CCOCC2)c2c(-c3ccc4nc(C)oc4c3)c[nH]c2n1
inhibition at 3 µM, %: 100
--
Molecule: CNC(=O)c1ccc(Nc2nc(OC(C)C)c3c(-c4ccc5nc(C)oc5c4)c[nH]c3n2)c(Cl)c1
inhibition at 3 µM, %: 98
--
Molecule: CNC(=O)c1ccc(-c2c[nH]c3nc(Nc4cn(C)nc4C)nc(OC4CCC4)c23)cc1
inhibition at 3 µM, %: 105
--
Molecule: CNC(=O)c1ccc(Nc2nc(OC3CCOCC3)c3c(-c4ccc5nc(C)oc5c4)c[nH]c3n2)c(OC(F)(F)F)c1
inhibition at 3 µM, %: 102
